Taken from ChEMBL document CHEMBL1139180.

Assay: Inhibition of Escherichia coli ATCase
OBSERVATION TYPE: IC50 (nM)

| COMPOUND | UNIT TAG | IC50 |
| --- | --- | --- |
| O=C(CP(=O)(O)O)NC(CCO)C(=O)O (stereo not drawn) | nM | 3900 |

[a] O=C(O)C[C@H](NC(=O)CP(=O)(O)O)C(=O)O
[b] NC(=O)CC(NC(=O)CP(=O)(O)O)C(=O)O (stereo not drawn)
Form: Entry with minimum IC50 (choose one): a / b # reply format: chosen label
a

###

Assay: Inhibition of Escherichia coli ATCase
OBSERVATION TYPE: IC50 (µM)

| MOLECULE | OBSERVATION TYPE | UNIT TAG | READOUT NUMBER |
| --- | --- | --- | --- |
| O=C(CP(=O)(O)O)NC(CO)C(=O)O (configuration not stated) | IC50 | µM | 30 |
| CC(O)C(NC(=O)CP(=O)(O)O)C(=O)O (configuration not stated) | IC50 | µM | 42 |
| O=C(CP(=O)(O)O)NC(CO)CCO (configuration not stated) | IC50 | µM | 2900 |
| O=C(CP(=O)(O)O)NC(C(=O)O)C(=O)O | IC50 | µM | 43.5 |
| O=C(CP(=O)(O)O)NC(CO)CO | IC50 | µM | 12500 |

[a] NC(=O)C(CC(=O)O)NC(=O)CP(=O)(O)O (configuration not stated)
[b] O=C(CP(=O)(O)O)NC(Cc1ccc(O)cc1)C(=O)O (configuration not stated)
Form: Entry with minimum IC50 (choose one): a / b # reply format: chosen label
a
